molecular target: AMPA receptor; experiment: 3H-AMPA binding (in vitro receptor affinity test); settings: cerebral cortex membranes from male Wistar rats; 3H-AMPA 5 nM; 30 minutes at 2° C.; read-out: IC50 (concentration of the test substance which inhibits the specific binding of 3H-AMPA by 50%)
Counter-ions that a name gives are not always drawn.
READOUT KIND: IC50 (µM)
Form entry: value (µM) — number only.

[
  {
    "MOLECULE": "CN1CCc2c(-c3ccc(S(=O)(=O)N(C)C)cc3)cc3c(c2C1)NC(=O)C3=NOC1CCOC1=O (stereo not drawn) [hydrochloride]",
    "MEASURE UNIT": "µM",
    "RECORDED NUMBER": 0.15
  },
  {
    "MOLECULE": "CN1CCc2c(-c3ccc(S(=O)(=O)N(C)C)cc3)cc3c(c2C1)NC(=O)C3=NOC(CCO)C(=O)O (stereo not drawn) [sodium salt]",
    "MEASURE UNIT": "µM",
    "RECORDED NUMBER": 0.05
  }
]

Which measured IC50 belongs to CCOC(=O)CO/N=C1\C(=O)Nc2c1cc(-c1ccc(S(=O)(=O)N(C)C)cc1)c1c2CN(C)CC1 , tested on AMPA receptor?
0.1
